I'd be grateful if you could share measured half-life at 1 µM for these entries.
# MEASUREMENT PROTOCOL: In vitro liver microsomal stability assay, rat
# Format: in vitro ADME
# ASSAY CONTEXT: Rat liver microsomes
The reply should be a number in min, with the unit left off.

Asked: Bench note: what half-life at 1 µM did COc1cccc(-n2ncn(CC(=O)[C@H]3CC[C@H]4[C@@H]5CC[C@@H]6C[C@](C)(O)CC[C@@H]6[C@H]5CC[C@]34C)c2=O)c1 [Compound 5] show?
Given back: 14.1

Asked: Lookup C[C@@]1(O)CC[C@H]2[C@H](CC[C@@H]3[C@@H]2CC[C@]2(C)[C@@H](C(=O)Cn4cnn(-c5ccccc5F)c4=O)CC[C@@H]32)C1 [Compound 18]
Given back: 9

Asked: Lookup C[C@@]1(O)CC[C@H]2[C@H](CC[C@@H]3[C@@H]2CC[C@]2(C)[C@@H](C(=O)Cn4cnn(-c5cc(F)cc(C#N)c5)c4=O)CC[C@@H]32)C1 [Compound 44]
Given back: 93.6

Asked: Lookup CC(C)(C)n1ncn(CC(=O)[C@H]2CC[C@H]3[C@@H]4CC[C@@H]5C[C@](C)(O)CC[C@@H]5[C@H]4CC[C@]23C)c1=O [Compound 45]
Given back: 8.9

Asked: Lookup C[C@@]1(O)CC[C@H]2[C@H](CC[C@@H]3[C@@H]2CC[C@]2(C)[C@@H](C(=O)Cn4cnn(-c5cncc(F)c5)c4=O)CC[C@@H]32)C1 [Compound 23]
Given back: 34.7
